system: Platelet-derived growth factor receptor alpha (Homo sapiens), P16234 [D842V]; conditions: at 1 µM
Sequence (P16234 whole entry D842V): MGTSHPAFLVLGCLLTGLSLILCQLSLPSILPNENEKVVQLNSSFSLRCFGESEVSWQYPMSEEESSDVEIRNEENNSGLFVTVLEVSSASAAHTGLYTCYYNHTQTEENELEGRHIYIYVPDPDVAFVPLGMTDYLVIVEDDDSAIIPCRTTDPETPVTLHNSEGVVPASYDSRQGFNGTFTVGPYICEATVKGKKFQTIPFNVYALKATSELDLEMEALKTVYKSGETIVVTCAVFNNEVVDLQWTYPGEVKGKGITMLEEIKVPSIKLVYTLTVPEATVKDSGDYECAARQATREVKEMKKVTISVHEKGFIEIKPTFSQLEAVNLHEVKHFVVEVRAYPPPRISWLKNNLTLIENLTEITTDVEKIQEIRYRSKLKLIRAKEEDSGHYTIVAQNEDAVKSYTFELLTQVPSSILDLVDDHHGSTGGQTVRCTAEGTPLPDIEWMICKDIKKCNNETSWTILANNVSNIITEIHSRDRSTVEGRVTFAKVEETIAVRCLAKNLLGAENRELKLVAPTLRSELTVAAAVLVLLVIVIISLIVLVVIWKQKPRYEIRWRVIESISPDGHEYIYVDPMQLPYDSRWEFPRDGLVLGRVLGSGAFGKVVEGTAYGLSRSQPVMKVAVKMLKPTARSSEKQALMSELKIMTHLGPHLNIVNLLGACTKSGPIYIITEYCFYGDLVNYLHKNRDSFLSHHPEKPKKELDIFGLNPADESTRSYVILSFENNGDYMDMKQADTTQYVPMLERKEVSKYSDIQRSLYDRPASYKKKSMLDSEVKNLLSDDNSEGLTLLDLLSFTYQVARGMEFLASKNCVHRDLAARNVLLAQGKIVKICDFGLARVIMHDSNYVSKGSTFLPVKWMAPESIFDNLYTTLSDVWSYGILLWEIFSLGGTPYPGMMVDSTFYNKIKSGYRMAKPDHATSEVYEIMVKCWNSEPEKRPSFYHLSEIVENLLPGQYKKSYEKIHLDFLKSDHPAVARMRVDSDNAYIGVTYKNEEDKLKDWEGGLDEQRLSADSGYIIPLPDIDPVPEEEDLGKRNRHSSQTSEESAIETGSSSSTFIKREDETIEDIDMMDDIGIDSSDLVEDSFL
inhibition below 20% gives false; inhibition at or above it gives true.

N#Cc1c(NC(=O)c2ccc(F)cc2)sc2c1CCCC2 ... false
CCc1nn2ncccc2c1-c1ccnc(NC2CC2)n1 ... false
CCN(CC)S(=O)(=O)c1ccc(OC)c(Nc2ncc(-c3ccccc3)o2)c1 ... true
Cc1cccc2c1NC(=O)/C2=N\Nc1ccc(S(N)(=O)=O)cc1 ... false

Entry `Nc1nc(-c2ccc(F)cc2)c(-c2ccc3ncccc3n2)s1` : is its inhibition no less than 20%?
true

inhibition >= 20% for `COc1cc(N2CCN(C(C)C)CC2)ccc1Nc1nc(Nc2ccc(F)cc2C(N)=O)c2cc[nH]c2n1` ?
true

====

molecular target: Cytoplasmic tyrosine-protein kinase BMX (Homo sapiens); conditions: at 0.1 µM
Description: GSK_PKIS: BMX mean inhibition at 0.1 uM [Nanosyn]
readout_kind: inhibition (%)
Could you give me the number in %? Just the number is fine.

Here is how some molecules turned out for inhibition.
COc1ccc2[nH]c3c4[nH]c5ccc(OC)cc5c4c4c(c3c2c1)C(=O)NC4=O ... -2.69
CN1CCC(n2cnc(-c3ccc(F)cc3)c2-c2ccnc(Nc3ccccc3)n2)CC1 ... 6.66
Nc1nc(-c2ccc(F)cc2)c(-c2ccc3ncccc3n2)s1 ... -2.65
CC(=O)NCc1cccc(C#Cc2cncnc2Nc2ccc(OCc3cccc(F)c3)c(Cl)c2)c1 ... 2.32
[O-][S+]1CCN(Cc2ccc(-c3ccc4ncnc(Nc5ccc(OCc6cccc(F)c6)c(Cl)c5)c4c3)o2)CC1 ... 7.13

Quick note, inhibition for `CS(=O)(=O)CCNCc1coc(-c2ccc3ncnc(Nc4ccc(OCc5ccccc5)cc4)c3c2)c1` landed at 4.64

====

target: Dual specificity protein kinase TTK (Homo sapiens) (UniProt P33981); conditions: at 0.1 µM
Sequence (P33981 whole entry): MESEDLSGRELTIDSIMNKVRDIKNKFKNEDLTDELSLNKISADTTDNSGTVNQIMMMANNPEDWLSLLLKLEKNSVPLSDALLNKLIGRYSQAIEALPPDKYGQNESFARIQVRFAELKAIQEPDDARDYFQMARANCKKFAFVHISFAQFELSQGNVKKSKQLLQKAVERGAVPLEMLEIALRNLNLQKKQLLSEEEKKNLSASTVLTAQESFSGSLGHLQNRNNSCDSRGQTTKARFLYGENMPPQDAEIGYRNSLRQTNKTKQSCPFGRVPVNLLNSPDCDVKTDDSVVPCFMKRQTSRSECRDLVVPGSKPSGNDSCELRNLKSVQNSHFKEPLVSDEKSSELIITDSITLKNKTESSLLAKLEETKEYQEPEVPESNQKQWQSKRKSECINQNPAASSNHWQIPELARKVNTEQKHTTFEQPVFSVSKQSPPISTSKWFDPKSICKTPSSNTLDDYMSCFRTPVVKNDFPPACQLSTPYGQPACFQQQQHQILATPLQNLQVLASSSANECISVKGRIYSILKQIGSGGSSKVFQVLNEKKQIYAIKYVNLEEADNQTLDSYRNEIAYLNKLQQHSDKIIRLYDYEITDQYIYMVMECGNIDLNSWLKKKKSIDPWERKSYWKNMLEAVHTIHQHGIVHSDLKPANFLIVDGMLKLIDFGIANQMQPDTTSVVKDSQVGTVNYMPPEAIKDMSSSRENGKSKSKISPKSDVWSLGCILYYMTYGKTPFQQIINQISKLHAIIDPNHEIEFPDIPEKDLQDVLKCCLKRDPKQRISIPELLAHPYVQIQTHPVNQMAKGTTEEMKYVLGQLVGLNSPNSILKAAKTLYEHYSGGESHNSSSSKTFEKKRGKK
Description: GSK_PKIS: TTK mean inhibition at 0.1 uM [Nanosyn]
compounds and their reported inhibition
Report the value in % with no unit label.

Nc1ncc(-c2cccc(S(N)(=O)=O)c2)c2scc(-c3ccc(F)c(Cl)c3)c12 ... 5.8
CCN1CCC(CC(=O)Nc2n[nH]c3nnc(-c4cccc(F)c4F)cc23)CC1 ... 4.15
COc1cc(/C=N/Nc2ncnc3[nH]ncc23)ccc1O ... 4.54
CCN(CC)S(=O)(=O)c1ccc(OC)c(Nc2ncc(-c3ccccc3)o2)c1 ... 2.04

--- query ---
Input `c1cc(-c2cnn3nc(N4CCOCC4)ccc23)nc(NC2CC2)n1` . Output inhibition: 18.4

====

target: Serine/threonine-protein kinase PAK 5 (Homo sapiens); details: at 0.1 µM;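 also: values are mean percent inhibition of PAK5 from a kinase inhibitor set screen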
readout_kind: inhibition (%)
Please give a number only; it is taken to be in %.

Previously resolved entries follow.
CCn1cc(-c2ccnc3[nH]ccc23)c(-c2cccc(NC(=O)Nc3ccc(OCc4ccccc4)cc3)c2)n1 ... -1.74
CS(=O)(=O)CCNCc1ccc(-c2ccc3ncnc(Nc4ccc(OCc5ccccc5)c(C(F)(F)F)c4)c3c2)o1 ... 1.91

`Nc1ncc(-c2cccc(S(N)(=O)=O)c2)c2scc(-c3ccc(F)c(Cl)c3)c12` has a reported inhibition of 4.11

response.value for `CCN(CC)S(=O)(=O)c1ccc(OC)c(Nc2ncc(-c3ccccc3)o2)c1` (field: inhibition) = 8.61

====

target: Serine/threonine-protein kinase D1 (Homo sapiens); conditions: at 1 µM;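 also: each value is an averaged percent inhibition of PRKD1 kinase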
readout_kind: inhibition (%)
All answers are understood in %, so give the number only.

Solved cases (5 shown):
COc1ccc(-c2oc3ncnc(N)c3c2-c2ccc(NC(=O)Nc3cc(C(F)(F)F)ccc3F)cc2)cc1 ... 3.09
COc1cc(/C=N/Nc2ncnc3[nH]ncc23)ccc1O ... 4.19
NS(=O)(=O)c1ccc(Nc2ncc(-c3ccccc3)o2)cc1 ... 6.2
COc1ccc(-c2nn3ncccc3c2-c2ccnc(Nc3ccc4c(c3)OCCO4)n2)cc1 ... 6.6
COc1ccc2[nH]c3c4[nH]c5ccc(OC)cc5c4c4c(c3c2c1)C(=O)NC4=O ... 27

For this molecule ( `COc1ccc(CNC(=O)c2ccc(-c3cc(-c4nnc(C)o4)ccc3C)cc2)cc1` ), measured inhibition is -0.42

get_value(item= `COc1cc(Nc2nccc(Nc3ccc4c(C)n[nH]c4c3)n2)cc(OC)c1OC` , readout=inhibition) returns 2.11

====

target: Aurora kinase A (Homo sapiens) (UniProt O14965); conditions: at 1 µM;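 also: values are mean percent inhibition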
Sequence (O14965 whole entry): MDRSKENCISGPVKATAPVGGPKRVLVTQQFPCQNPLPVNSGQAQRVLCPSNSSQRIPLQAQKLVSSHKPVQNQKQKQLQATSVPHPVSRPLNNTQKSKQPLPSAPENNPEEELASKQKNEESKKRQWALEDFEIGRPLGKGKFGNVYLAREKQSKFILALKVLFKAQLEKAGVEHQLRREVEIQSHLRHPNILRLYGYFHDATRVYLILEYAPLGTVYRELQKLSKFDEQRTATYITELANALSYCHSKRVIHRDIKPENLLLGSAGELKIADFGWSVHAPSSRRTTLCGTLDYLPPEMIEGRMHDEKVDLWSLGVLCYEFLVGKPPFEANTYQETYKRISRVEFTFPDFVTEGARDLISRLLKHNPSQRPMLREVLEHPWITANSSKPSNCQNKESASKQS
Everything with inhibition lower than 20% is not met; everything else, including exactly 20%, is met.

Solved entries (count: 5):
COC(=O)Nc1nc2ccc(Oc3ccc(NC(=O)Nc4cccc(Cl)c4)cc3)cc2[nH]1 ... not met
COc1cc(N2CCN(C(C)C)CC2)ccc1Nc1nc(Nc2ccc(F)cc2C(N)=O)c2cc[nH]c2n1 ... not met
FC(F)(F)c1cccc(-c2nn3ncccc3c2-c2ccnc(Nc3ccc4c(c3)OCCO4)n2)c1 ... met
CNC(=O)c1cccc(C#Cc2cncnc2Nc2ccc(OCc3cccc(F)c3)c(Cl)c2)c1 ... not met
CC(C)(CO)CNC(=O)c1ccc2c(c1)/C(=N/Nc1ccc(S(N)(=O)=O)cc1)C(=O)N2 ... met

Quick check: does `COc1ccc(-c2oc3ncnc(N)c3c2-c2ccc(NC(=O)Nc3cc(C(F)(F)F)ccc3F)cc2)cc1` have inhibition greater than or equal to 20%?
met

Is it the case that `COC(=O)Nc1nc2ccc(S(=O)(=O)c3ccc(NC(=O)Nc4cc(C(F)(F)F)ccc4F)cc3)cc2[nH]1` has inhibition reaching or exceeding 20%?
not met

Check the entry `CCN(CC)S(=O)(=O)c1ccc(OC)c(Nc2ncc(-c3ccccc3)o2)c1` : does inhibition equal or exceed 20%?
not met

Entry `Fc1cccc(COc2ccc(Nc3ncnc4sc(-c5ccco5)cc34)cc2Cl)c1` : is its inhibition no less than 20%?
not met

// inclusive: inhibition at least 20%? input: `COc1cc(/C=N/Nc2ncnc3[nH]ncc23)ccc1O`
met

====

biological target: RAC-gamma serine/threonine-protein kinase (Homo sapiens) (UniProt Q9Y243); settings: at 0.1 µM
Sequence (Q9Y243 whole entry): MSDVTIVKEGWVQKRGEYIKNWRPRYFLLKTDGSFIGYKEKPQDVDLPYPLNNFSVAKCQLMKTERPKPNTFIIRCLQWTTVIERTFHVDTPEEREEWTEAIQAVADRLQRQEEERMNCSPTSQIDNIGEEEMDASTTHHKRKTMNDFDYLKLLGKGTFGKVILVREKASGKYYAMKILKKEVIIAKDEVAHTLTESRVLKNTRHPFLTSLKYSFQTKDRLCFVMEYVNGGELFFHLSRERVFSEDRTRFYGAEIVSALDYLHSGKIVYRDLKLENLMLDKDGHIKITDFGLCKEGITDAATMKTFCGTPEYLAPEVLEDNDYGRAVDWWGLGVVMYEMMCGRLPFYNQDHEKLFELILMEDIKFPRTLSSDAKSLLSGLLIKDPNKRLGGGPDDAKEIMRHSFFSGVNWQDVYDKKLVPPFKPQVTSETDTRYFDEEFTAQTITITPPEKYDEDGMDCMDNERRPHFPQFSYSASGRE
Description: GSK_PKIS: AKT3 mean inhibition at 0.1 uM [Nanosyn]
readout_kind: inhibition (%)
Quick reminder: number only, in %, skip the unit.

Sample records with inhibition:
CNC(=O)c1cccc(C#Cc2cncnc2Nc2ccc(OCc3cccc(F)c3)c(Cl)c2)c1 ... 0.81
COc1cc(N2CCN(C(C)C)CC2)ccc1Nc1nc(Nc2ccc(F)cc2C(N)=O)c2cc[nH]c2n1 ... 1.62

The recorded inhibition for `c1ccc(COc2ccc(Nc3ncnc4ccc(-c5ccco5)cc34)cc2)cc1` is 0.39

Value of measured inhibition for the entry `Fc1ccc(-c2nn3ncccc3c2-c2ccnc(Nc3ccc4c(c3)OCCO4)n2)cc1` : 0.88

Notebook: `O=S(=O)(CCNCc1ccc(-c2ccc3ncnc(Nc4ccc(OCc5cccc(F)c5)c(Cl)c4)c3c2)o1)c1ccccc1` , inhibition read as 0.84

inhibition reported for this compound `c1cc(-c2cnn3nc(N4CCOCC4)ccc23)nc(NC2CC2)n1` : 1.36

Recorded result, `CC(C)COC(=O)c1ccc2c(c1)/C(=C/Nc1ccc(S(N)(=O)=O)cc1)C(=O)N2` , inhibition: 1.5

// `O=C(O[C@H]1CN[C@H](C#Cc2cc3ncnc(Nc4ccc(Cc5ccccc5)cc4)c3s2)C1)N1CCOCC1` : inhibition value = 0.38

Value of inhibition reported for the compound `CCN(CC)S(=O)(=O)c1ccc(OC)c(Nc2ncc(-c3ccccc3)o2)c1` is 2.3

====

target: Protein-tyrosine kinase 2-beta (Homo sapiens) (UniProt Q14289); details: at 0.1 µM;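 also: reported as mean percent inhibition of PYK2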
Sequence (Q14289 whole entry, looked up): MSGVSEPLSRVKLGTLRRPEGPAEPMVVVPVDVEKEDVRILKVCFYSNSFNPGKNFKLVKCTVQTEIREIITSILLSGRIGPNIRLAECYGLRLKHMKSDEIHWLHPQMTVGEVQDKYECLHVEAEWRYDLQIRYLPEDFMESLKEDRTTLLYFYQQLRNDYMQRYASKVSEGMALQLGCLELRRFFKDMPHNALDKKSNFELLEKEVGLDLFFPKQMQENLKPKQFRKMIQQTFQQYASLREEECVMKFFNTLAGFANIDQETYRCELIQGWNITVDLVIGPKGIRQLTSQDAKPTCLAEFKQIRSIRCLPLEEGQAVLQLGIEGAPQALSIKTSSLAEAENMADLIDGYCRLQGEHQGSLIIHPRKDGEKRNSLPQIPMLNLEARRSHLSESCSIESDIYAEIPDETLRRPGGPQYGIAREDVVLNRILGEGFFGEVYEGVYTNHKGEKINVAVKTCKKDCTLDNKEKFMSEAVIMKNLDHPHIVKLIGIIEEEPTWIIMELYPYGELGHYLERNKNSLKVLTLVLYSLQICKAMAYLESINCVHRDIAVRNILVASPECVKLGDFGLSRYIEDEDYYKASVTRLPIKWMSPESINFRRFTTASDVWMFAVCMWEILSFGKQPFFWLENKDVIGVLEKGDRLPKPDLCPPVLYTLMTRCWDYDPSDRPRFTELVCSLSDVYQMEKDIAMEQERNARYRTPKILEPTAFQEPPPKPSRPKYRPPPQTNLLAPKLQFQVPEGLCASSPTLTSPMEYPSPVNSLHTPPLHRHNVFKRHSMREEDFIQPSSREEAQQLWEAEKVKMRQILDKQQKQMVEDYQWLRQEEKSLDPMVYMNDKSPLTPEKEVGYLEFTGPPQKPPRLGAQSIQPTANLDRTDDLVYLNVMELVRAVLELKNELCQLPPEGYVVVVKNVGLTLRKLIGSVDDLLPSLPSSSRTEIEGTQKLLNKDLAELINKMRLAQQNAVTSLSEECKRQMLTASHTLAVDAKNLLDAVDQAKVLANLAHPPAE
Ranges used to classify inhibition: category 1 = under 4%, category 2 = from 4% up to 8%, category 3 = 8% and over

These recorded examples may help you get a feel for the data.
COc1cc(/C=N/Nc2ncnc3[nH]ncc23)ccc1O ... category 3
Nc1ncc(-c2cccc(S(N)(=O)=O)c2)c2scc(-c3ccc(F)c(Cl)c3)c12 ... category 1
COC(=O)c1sc(-n2cnc3cc(OC)c(OC)cc32)cc1OCc1ccccc1C(F)(F)F ... category 3
c1cc(-c2cnn3nc(N4CCOCC4)ccc23)nc(NC2CC2)n1 ... category 3
CCn1c(-c2nonc2N)nc2c(C#CC(C)(C)O)ncc(OC3CCNCC3)c21 ... category 2

Which bin, given its inhibition, does `COc1ccc(-c2cc(-c3c[nH]nc3-c3ccccn3)ccn2)cc1` occupy?
category 2

Into which category would you place `CNC(=O)c1cc(-c2ccc(F)cc2)cc(-c2ccc(S(=O)(=O)N3CCCC3)cc2)c1N` ?
category 1

Where would `COC(=O)Nc1nc2ccc(S(=O)(=O)c3ccc(NC(=O)Nc4cc(C(F)(F)F)ccc4F)cc3)cc2[nH]1` land among the classes by reported inhibition?
category 1

====

target: RAC-beta serine/threonine-protein kinase (Homo sapiens) (UniProt P31751); details: at 0.1 µM;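 also: reported figure is the mean percent inhibition of AKT2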
Sequence (P31751 whole entry): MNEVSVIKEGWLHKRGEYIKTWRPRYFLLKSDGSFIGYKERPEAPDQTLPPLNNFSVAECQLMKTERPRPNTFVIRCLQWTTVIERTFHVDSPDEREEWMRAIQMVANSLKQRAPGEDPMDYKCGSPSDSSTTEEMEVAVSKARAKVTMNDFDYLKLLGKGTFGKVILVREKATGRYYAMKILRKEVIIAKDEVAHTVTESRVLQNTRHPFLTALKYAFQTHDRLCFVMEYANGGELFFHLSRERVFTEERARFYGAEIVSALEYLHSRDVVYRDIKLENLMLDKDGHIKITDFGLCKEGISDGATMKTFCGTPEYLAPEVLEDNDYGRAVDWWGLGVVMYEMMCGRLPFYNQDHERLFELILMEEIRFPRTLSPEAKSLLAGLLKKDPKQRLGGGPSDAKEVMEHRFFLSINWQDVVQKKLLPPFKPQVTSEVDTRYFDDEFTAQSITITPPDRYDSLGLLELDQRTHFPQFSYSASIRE
readout_kind: inhibition (%)
Form entry: value (%) — number only.

CC1=C(C(=O)Nc2cc(Cl)c3[nH]ncc3c2)C(c2ccc(C(F)(F)F)cc2)CC(=O)N1 (centres undefined) ... 1.33
COc1cc(N2CCN(C(C)C)CC2)ccc1Nc1nc(Nc2ccc(F)cc2C(N)=O)c2cc[nH]c2n1 ... 1.62
CN1CCC(n2cnc(-c3ccc(F)cc3)c2-c2ccnc(N)n2)CC1 ... 0.39
COC(=O)Nc1nc2ccc(Oc3ccc(NC(=O)Nc4cccc(Cl)c4)cc3)cc2[nH]1 ... -0.4
CCn1c(-c2nonc2N)nc2cnc(Oc3cccc(NC(=O)c4ccc(N(C)C)cc4)c3)cc21 ... 0.71
COc1ccc(-c2cc(-c3c[nH]nc3-c3ccccn3)ccn2)cc1 ... 2.54

Documented inhibition of `CN1CCC(n2cnc(-c3ccc(F)cc3)c2-c2ccnc(Nc3ccccc3)n2)CC1` : 0.63

// `NS(=O)(=O)c1ccc(Nc2ncc(-c3ccccc3)o2)cc1` : inhibition value = 2.08

Lookup result for `Nc1ncc(-c2cccc(S(N)(=O)=O)c2)c2scc(-c3ccc(F)c(Cl)c3)c12` ; measured inhibition: 0.29

// field: inhibition; key: `COc1ccc(-c2cc3c(N)ncnc3o2)cc1` ; value = -0.81
